target: A/Denmark/524/2009 (H1N1)pdm09 NA-H274 (Influenza A virus)
pIC50: −log10 of the molar value.

| SMILES STR | pIC50 |
| --- | --- |
| CCC(CC)[C@H](NC(C)=O)[C@@H]1[C@H](O)[C@@H](C(=O)O)C[C@H]1N=C(N)N | 10.00 |
